method.summary: Protein binding in rat plasma (dialysis)
Assay type: in vitro ADME
condition.summary: Rat Plasma, intended 5 nM, actual 3.64 nM at end of 4-hour dialysis; read-out: % Bound (converted)
value.type: fraction unbound at 4 h, 5 nM
Output spec: single numeric token, no unit.

Please report the recorded fraction unbound at 4 h, 5 nM for CO[C@@H]1[C@H](OC(=O)N2CC(CCN3CCOCC3)C2)CC[C@]2(CO2)[C@H]1[C@@]1(C)O[C@@H]1CC=C(C)C [Compound A] .
0.323

====

method.summary: Pharmacokinetics after subcutaneous administration in dogs
Type: in vivo
condition.summary: beagle, plasma; Dog, SC, 0.6 mg/kg; N = 1
value.type: half-life (min)
Field format: number, assumed min, no unit text.

Please report the recorded half-life for CO[C@@H]1[C@H](OC(=O)/C=C/c2ccc(OCCN(C)C)cc2)CC[C@]2(CO2)[C@H]1[C@@]1(C)O[C@@H]1CC=C(C)C [beloranib, reference compound] .
470
